Catalogue of compounds with associated GI50
# System: panel of 55 breast cancer cell lines
# Test Description: Cell growth inhibition assay (Cell Titer Glo, 72 h, 9 doses; GI50, TGI, LC50)
# Format: cell-based, human
# Cond: cell line SUM52PE; value is the negative log10 of mol/L
Give the value as a plain number.

Query: Specify GI50 for Cc1cc(C(=O)N2CCN(c3cccc(Cl)c3)CC2)n(-c2ccccc2)n1 [XRP44X] and stop.
Response: 6.06

Query: Please give measured GI50 of the following entry: CC(C)(C)c1cc(C=C(C#N)C#N)cc(Br)c1O
Response: 5.45

Query: Could you please provide reported GI50 for NS(=O)(=O)c1ccc(Nc2nc(OCC3CCCCC3)c3[nH]cnc3n2)cc1 ? Thanks!
Response: 5.27
